test: monoprotic acid or base: log K of the neutral species extrapolated from the linear regression of D on the neutral fraction (from pKa and pH; the paper's eq. for monoprotic IOCs), the slope giving K of the neutral species; replicates column holds the table's 95% confidence limits. PDMS sheets cleaned by Soxhlet with ethyl acetate; batch shaking method with a mixture of all chemicals at several PDMS-mass to water-volume ratios and spiked levels; vials shaken on an orbital shaker at room temperature in the dark, sampled at two equilibration times; PDMS extracts and water quantified by LC-HRMS (Orbitrap); D from the slope of C_PDMS on C_w or their ratio; conditions: PDMS (polydimethylsiloxane silicone sheet); phosphate buffer at three target pH values (the paper's methods)
metric-name: log K PDMS/w (neutral species)

Record excerpt, results attached:
                                   compound                         reported_result
0                  O=C(O)CCC(=O)c1ccc(F)cc1  0.05461 log units; D and K as the pape
1  Cc1nccn1CC1CCc2c(c3ccccc3n2C)C1=O (stereo not shown)    2.203 log units; D and K as the pape
2                        Clc1ccc2n[nH]nc2c1    1.144 log units; D and K as the pape
3                CCC1(c2ccccc2)C(=O)NCNC1=O    1.057 log units; D and K as the pape
4           CCOC(=O)NCCOc1ccc(Oc2ccccc2)cc1    3.121 log units; D and K as the pape

**Q:** Look up log K PDMS/w (neutral species) for this compound: c1ccc2[nH]c(-c3cscn3)nc2c1
**A:** 1.855 log units; D and K as the pape

**Q:** # repeat for c1ccc2nc3ccccc3cc2c1
**A:** 2.366 log units; D and K as the pape

**Q:** # repeat for Clc1cccc(Cl)c1NC1=NCCN1
**A:** 2.618 log units; D and K as the pape

**Q:** # repeat for c1ccc2c(c1)[nH]c1ccncc12
**A:** 2.458 log units; D and K as the pape

**Q:** # repeat for Clc1ccccc1C(c1ccccc1)(c1ccccc1)n1ccnc1
**A:** 4.471 log units; D and K as the pape
